Details: in 1,2-dichloroethane, 308.15 K
MEASUREMENT_KIND: solubility (mole fraction)
Lab note: record just the number, no unit beside it.

Sample `O=[N+]([O-])c1cc([N+](=O)[O-])c(Cl)c(Cl)c1Cl` ; solubility (mole fraction) observed: 0.185

====

Conditions: in NMP, 313.15 K
MEASUREMENT_KIND: solubility (mole fraction)
Lab note: record just the number, no unit beside it.

Sample `O=[N+]([O-])c1cc([N+](=O)[O-])c(Cl)c(Cl)c1Cl` ; solubility (mole fraction) observed: 0.4

====

Conditions: in n-butanol, 298.15 K
MEASUREMENT_KIND: solubility (mole fraction)
Lab note: record just the number, no unit beside it.

Sample `O=[N+]([O-])c1cc([N+](=O)[O-])c(Cl)c(Cl)c1Cl` ; solubility (mole fraction) observed: 0.00565

====

Conditions: in NMP, 318.15 K
MEASUREMENT_KIND: solubility (mole fraction)
Lab note: record just the number, no unit beside it.

Sample `O=[N+]([O-])c1cc([N+](=O)[O-])c(Cl)c(Cl)c1Cl` ; solubility (mole fraction) observed: 0.425

====

Conditions: in DMF, 298.15 K
MEASUREMENT_KIND: solubility (mole fraction)
Lab note: record just the number, no unit beside it.

Sample `O=[N+]([O-])c1cc([N+](=O)[O-])c(Cl)c(Cl)c1Cl` ; solubility (mole fraction) observed: 0.274

====

Details: in DMSO, 298.15 K
MEASUREMENT_KIND: solubility (mole fraction)

Sample `O=[N+]([O-])c1cc([N+](=O)[O-])c(Cl)c(Cl)c1Cl` ; solubility (mole fraction) observed: 0.262

====

Conditions: in DMF, 323.15 K
MEASUREMENT_KIND: solubility (mole fraction)
Lab note: record just the number, no unit beside it.

Sample `O=[N+]([O-])c1cc([N+](=O)[O-])c(Cl)c(Cl)c1Cl` ; solubility (mole fraction) observed: 0.419

====

Settings: in 1,2-dichloroethane, 288.15 K
MEASUREMENT_KIND: solubility (mole fraction)

Sample `O=[N+]([O-])c1cc([N+](=O)[O-])c(Cl)c(Cl)c1Cl` ; solubility (mole fraction) observed: 0.0895

Reference source for all entries: BigSolDB 2.1
